Values were extracted from PubChem BioAssay AID1117296.

# System: HuH7 TTR-promoter Gaussia luciferase reporter, luminescence
# protocolDescription: TTR transcription inhibitors in hepatoma cells, dose response, counter-screen for TTR transcription activator project, cell-based, luminescence, HuH7 hepatoma, IC50 (AID 1117296)
Activity calls are given as the source filed them.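 How the source made its calls: active means IC50 at or below 10 µM; inactive means IC50 above 10 µM.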
Catalogue of IC50 values
measurementName: IC50

compound=Cn1ncc(Cl)c1C(=O)N1CCc2ccccc21 measurementname=IC50 result="> 167 µM (inactive)"
compound="Cc1cccc(NC(c2ccc(O)cc2)c2ccc3ccc(C)nc3c2O)n1 (stereo not drawn)" measurementname=IC50 result="61.8 µM (inactive)"
compound=Cn1c(O)c(/C=C2\N=c3ccccc3=C2CCNC(=S)NC2CC2)c(=O)n(C)c1=O measurementname=IC50 result="45 µM (inactive)"

====

# Tested on: HuH7 TTR-promoter Gaussia luciferase reporter, luminescence
# protocolDescription: TTR transcription inhibitors in hepatoma cells, dose response, counter-screen for TTR transcription activator project, cell-based, luminescence, HuH7 hepatoma, IC50 (AID 1117296)
Active and inactive are the calls of the source.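 How the source made its calls: active means IC50 at or below 10 µM; inactive means IC50 above 10 µM.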
Catalogue of IC50 values
measurementName: IC50

querysmiles=CC(C)CNC(=O)CSc1nnc2ccccn12 result="> 167 µM (inactive)"
querysmiles=O=C(CCl)c1cc2c3c(c1)CC(=O)N3CCC2 result="19.8 µM (inactive)"
querysmiles=N=c1ccn(CC(=O)NC(N)=O)c2ccccc12 result="> 167 µM (inactive)"
querysmiles=Cc1c(C(=O)N2CCc3ccccc32)cnn1C result="> 167 µM (inactive)"
querysmiles=CCCC(=O)NC1=C(N2CC2)C(=O)C(NC(=O)CCC)=C(N2CC2)C1=O result="23.5 µM (inactive)"
querysmiles=Cc1nn(C)c(C(=O)N2CCc3ccccc32)c1Br result="> 167 µM (inactive)"

====

# System: HuH7 TTR-promoter Gaussia luciferase reporter, luminescence
# protocolDescription: TTR transcription inhibitors in hepatoma cells, dose response, counter-screen for TTR transcription activator project, cell-based, luminescence, HuH7 hepatoma, IC50 (AID 1117296)
Active and inactive are the calls of the source.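 How the source made its calls: active means IC50 at or below 10 µM; inactive means IC50 above 10 µM.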
Catalogue of IC50 values
measurementName: IC50

molecule=COc1ccc2[nH]c3c(Cl)ncnc3c2c1 target="HuH7 TTR-promoter Gaussia luciferase reporter, luminescence" result="> 167 µM (inactive)"
molecule=COc1cccc(-c2csc(NC(=O)C3CC3)n2)c1 target="HuH7 TTR-promoter Gaussia luciferase reporter, luminescence" result="103 µM (inactive)"
molecule=Cc1cccc(N(C)c2ncnc3onc(-c4ccc(F)cc4)c23)c1C target="HuH7 TTR-promoter Gaussia luciferase reporter, luminescence" result="> 55.2 µM (inactive)"
molecule=CN(Cc1ccccc1)C(=O)c1[nH]cnc1C(=O)NCC(=O)OC(C)(C)C target="HuH7 TTR-promoter Gaussia luciferase reporter, luminescence" result="> 167 µM (inactive)"
molecule=COc1ccc([C@@H]2CC=C(C(=O)O)[C@H](c3ccccc3F)N2S(=O)(=O)c2ccccc2C)cc1 target="HuH7 TTR-promoter Gaussia luciferase reporter, luminescence" result="66.3 µM (inactive)"
molecule=Cc1cnc(NC(=O)CCCc2nc3ccccc3s2)s1 target="HuH7 TTR-promoter Gaussia luciferase reporter, luminescence" result="> 167 µM (inactive)"
molecule=[O-]/C(=C(\C(=S)Nc1ccc(SC(F)F)cc1)[n+]1ccccc1)c1cc(Cl)ccc1Cl target="HuH7 TTR-promoter Gaussia luciferase reporter, luminescence" result="> 167 µM (inactive)"
molecule=COc1ccc(-c2cc(C)no2)cc1S(=O)(=O)NCc1cccc(C)c1 target="HuH7 TTR-promoter Gaussia luciferase reporter, luminescence" result="> 167 µM (inactive)"
molecule=Cc1ccccc1Cn1cc(COC(=O)N(C)Cc2ccccc2)nn1 target="HuH7 TTR-promoter Gaussia luciferase reporter, luminescence" result="115 µM (inactive)"
molecule="Cn1cc(C2CC(c3ccccc3)=NN2C(=O)c2ccccc2)c2ccccc21 (stereo unspecified)" target="HuH7 TTR-promoter Gaussia luciferase reporter, luminescence" result="> 167 µM (inactive)"
molecule="COc1ccc(C(=O)NC2CCCc3c2cnn3-c2cc(F)cc(F)c2)c(OC)c1OC (stereo unspecified)" target="HuH7 TTR-promoter Gaussia luciferase reporter, luminescence" result="61.9 µM (inactive)"
molecule=CN(C)CCNc1ccc(CO)c2oc3ccc(O)cc3c(=O)c12 target="HuH7 TTR-promoter Gaussia luciferase reporter, luminescence" result="> 55.2 µM (inactive)"
molecule=CCOC(=O)Nc1nc(-c2ccccc2)c(C(=O)c2ccc(Cl)cc2)s1 target="HuH7 TTR-promoter Gaussia luciferase reporter, luminescence" result="> 55.2 µM (inactive)"
molecule="CC1CN(Cc2ccccc2)c2nc3c(c(=O)n(CC(N)=O)c(=O)n3C)n2C1 (stereo unspecified)" target="HuH7 TTR-promoter Gaussia luciferase reporter, luminescence" result="> 167 µM (inactive)"
molecule=Cc1cc(C)n(CC(=O)n2c(C)c(C)c3ccccc32)n1 target="HuH7 TTR-promoter Gaussia luciferase reporter, luminescence" result="> 167 µM (inactive)"
molecule=Cc1ccc(Nc2c3c(nc4ncnn24)CCC3)cc1 target="HuH7 TTR-promoter Gaussia luciferase reporter, luminescence" result="> 167 µM (inactive)"
molecule="CN(C)CC(CCC(CN(C)C)C(O)(c1ccccc1)c1ccccc1)C(O)(c1ccccc1)c1ccccc1 (stereo unspecified)" target="HuH7 TTR-promoter Gaussia luciferase reporter, luminescence" result="17.2 µM (inactive)"
molecule=CCn1ncc(/C=N\NC(=O)c2csc3ccccc23)c1C target="HuH7 TTR-promoter Gaussia luciferase reporter, luminescence" result="> 167 µM (inactive)"
molecule=O=C(O)c1ccc(CSc2nnc(Cc3ccccc3)o2)cc1 target="HuH7 TTR-promoter Gaussia luciferase reporter, luminescence" result="27.3 µM (inactive)"
molecule=Cc1cc(C(=O)N2CCc3ccccc32)n(-c2ccccc2)n1 target="HuH7 TTR-promoter Gaussia luciferase reporter, luminescence" result="175 µM (inactive)"
molecule=O=C/C(=C\Nc1ccccn1)c1nc2ccccc2o1 target="HuH7 TTR-promoter Gaussia luciferase reporter, luminescence" result="> 18.4 µM (inactive)"
molecule=Cn1nccc1C(=O)N1CCc2ccccc21 target="HuH7 TTR-promoter Gaussia luciferase reporter, luminescence" result="> 167 µM (inactive)"
molecule=Cn1cc(Br)c(C(=O)N2CCc3ccccc32)n1 target="HuH7 TTR-promoter Gaussia luciferase reporter, luminescence" result="> 167 µM (inactive)"
molecule=Cc1ccc(/C=N/NC(=O)c2csc(C)c2)o1 target="HuH7 TTR-promoter Gaussia luciferase reporter, luminescence" result="116 µM (inactive)"
molecule=O=[N+]([O-])c1cccc(-c2noc(-c3ccco3)n2)c1 target="HuH7 TTR-promoter Gaussia luciferase reporter, luminescence" result="> 167 µM (inactive)"
molecule="CC(Oc1ccccc1)C(=O)N1CCN=C1SCc1ccccc1 (stereo unspecified)" target="HuH7 TTR-promoter Gaussia luciferase reporter, luminescence" result="70.7 µM (inactive)"
molecule=Cc1nnc(SCc2ccc(Cl)cc2)nc1/C=C/N(C)C target="HuH7 TTR-promoter Gaussia luciferase reporter, luminescence" result="81.3 µM (inactive)"
molecule=COc1ccc2cc3c(N)nn(C(=O)c4ccccc4[N+](=O)[O-])c3nc2c1 target="HuH7 TTR-promoter Gaussia luciferase reporter, luminescence" result="34.8 µM (inactive)"
molecule=c1cc2c(cc1C1=Nn3c(nnc3C3CCCCC3)SC1)OCO2 target="HuH7 TTR-promoter Gaussia luciferase reporter, luminescence" result="47.1 µM (inactive)"
molecule=Cc1ccc(CNC(=O)Cc2ccc(-c3ccccc3)cc2)cc1 target="HuH7 TTR-promoter Gaussia luciferase reporter, luminescence" result="> 167 µM (inactive)"
molecule="C=CCn1c(=O)c2c(nc3n2CC(C)CN3Cc2ccccc2)n(C)c1=O (stereo unspecified)" target="HuH7 TTR-promoter Gaussia luciferase reporter, luminescence" result="82.5 µM (inactive)"
molecule=COc1ccc(-c2noc(-c3cccs3)n2)cc1OC target="HuH7 TTR-promoter Gaussia luciferase reporter, luminescence" result="> 167 µM (inactive)"
molecule=CCCNC(=O)c1ccc(N2CCC3(CC2)CC(c2ccccc2)=NO3)c(NC(=O)c2ccco2)c1 target="HuH7 TTR-promoter Gaussia luciferase reporter, luminescence" result="> 167 µM (inactive)"
molecule=O=c1cc(O)c2sc(Nc3ccc(Cl)c(F)c3)nc2[nH]1 target="HuH7 TTR-promoter Gaussia luciferase reporter, luminescence" result="> 167 µM (inactive)"
molecule=CCCCn1c(O)c(C(=O)/C=C/c2ccc3c(c2)OCO3)c(=O)[nH]c1=O target="HuH7 TTR-promoter Gaussia luciferase reporter, luminescence" result="90.9 µM (inactive)"
molecule=Cc1c(NS(=O)(=O)c2ccc(NC3CCCC3)c([N+](=O)[O-])c2)c(=O)n(-c2ccccc2)n1C target="HuH7 TTR-promoter Gaussia luciferase reporter, luminescence" result="> 167 µM (inactive)"
molecule=CCOc1ccc(N=C2NC(=O)S/C2=C\c2ccc(O)cc2)cc1 target="HuH7 TTR-promoter Gaussia luciferase reporter, luminescence" result="> 167 µM (inactive)"
molecule=COc1ccc(CCNc2c3ccccc3nc3ccccc23)cc1OC target="HuH7 TTR-promoter Gaussia luciferase reporter, luminescence" result="54.4 µM (inactive)"
molecule=CC(=O)c1cc(C(C)=O)c(C)nc1C target="HuH7 TTR-promoter Gaussia luciferase reporter, luminescence" result="> 167 µM (inactive)"
molecule=Cc1c(Br)c(C(=O)N2CCc3ccccc32)nn1C target="HuH7 TTR-promoter Gaussia luciferase reporter, luminescence" result="> 167 µM (inactive)"
molecule=Cn1ncc(Br)c1C(=O)N1CCc2ccccc21 target="HuH7 TTR-promoter Gaussia luciferase reporter, luminescence" result="> 167 µM (inactive)"
molecule=OCCNc1c2ccccc2nc2ccccc12 target="HuH7 TTR-promoter Gaussia luciferase reporter, luminescence" result="54.9 µM (inactive)"
molecule=c1ccc(Sc2ncnc3c2oc2ccccc23)nc1 target="HuH7 TTR-promoter Gaussia luciferase reporter, luminescence" result="142 µM (inactive)"
molecule=Cc1ccc([C@H]2C[C@@H](O)[C@H](n3cc(-c4ccc(F)cc4)nn3)CN2C(=O)c2cccs2)cc1 target="HuH7 TTR-promoter Gaussia luciferase reporter, luminescence" result="63 µM (inactive)"
molecule="Cc1ccc(C2CC(c3ccccc3)=NN2C(=S)Nc2ccccc2)o1 (stereo unspecified)" target="HuH7 TTR-promoter Gaussia luciferase reporter, luminescence" result="> 167 µM (inactive)"
molecule=C/C(=N\Nc1ncc(Br)cn1)c1cccc([N+](=O)[O-])c1 target="HuH7 TTR-promoter Gaussia luciferase reporter, luminescence" result="> 167 µM (inactive)"
